Please respond with reported MIC for every item in the list.
System: Streptococcus faecalis X66
Measurement notes: MIC by standard agar dilution test
Assay type: cell-based
Condition label: Enterococcus faecalis, X66; Table II; agar dilution; read-out: Minimum Inhibitory Concentration
Numbers only, in µg/mL.

Below, each entry is followed by its recorded MIC result.
CN[C@@H]1[C@@H](O[C@H]2O[C@H](COS(=O)(=O)c3ccc(C)cc3)[C@@H](N)[C@H](O)[C@H]2O)O[C@H]2C[C@@H](N)[C@@H](O[C@H]3[C@H](O)[C@@H](O)[C@H](N)C[C@@H]3N)O[C@@H]2[C@@H]1O :: 16
CN[C@@H]1[C@@H](O[C@H]2O[C@H](COS(C)(=O)=O)[C@@H](N)[C@H](O)[C@H]2O)O[C@H]2C[C@@H](N)[C@@H](O[C@H]3[C@H](O)[C@@H](O)[C@H](N)C[C@@H]3N)O[C@@H]2[C@@H]1O :: 32
CN[C@@H]1[C@@H](O[C@H]2O[C@H](CCl)[C@@H](N)[C@H](O)[C@H]2O)O[C@H]2C[C@@H](N)[C@@H](O[C@H]3[C@H](O)[C@@H](O)[C@H](N)C[C@@H]3N)O[C@@H]2[C@@H]1O :: 8

For the molecule CN[C@@H]1[C@@H](O[C@H]2O[C@H](C)[C@@H](N)[C@H](O)[C@H]2O)O[C@H]2C[C@@H](N)[C@@H](O[C@H]3[C@H](O)[C@@H](O)[C@H](N)C[C@@H]3N)O[C@@H]2[C@@H]1O , give its measured MIC value.
8
